Test: chemical genetic growth profiling, strain panel (AID 1159580);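 note: tested at 20 µM; growth read once vehicle control cultures reached saturation at 30 °C; lower values mean less growth of the strain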
Conditions: S. cerevisiae deletion strains, growth OD, locus YDL214C, strain PRR2, hits give low values
Hit rate of the full screen: of about 5,500 compounds, about 2,000 (36%) were called active. Another 18% or so got no clear call; they are omitted. The list shows a part of the results.
Hi! Could you tag entries with normalized growth below 0.9 as fulfilled, and those at or above as not fulfilled? Much appreciated.

compound: Cc1nn(Cc2nnc(SCc3cccc(C(F)(F)F)c3)o2)c(C)c1Br
assignedClass: not fulfilled

compound: CS(=O)(=O)c1sc(C(=O)Sc2ccc(Cl)cc2)c2c1C=CCC2
assignedClass: fulfilled

compound: O=C1CSC(c2ccc(C(F)(F)F)cc2)N1c1ccc(C(F)(F)F)cc1 (configuration not stated)
assignedClass: not fulfilled

compound: N#Cc1ccc(NC(=O)Nc2cccc3ccccc23)cc1
assignedClass: not fulfilled

compound: CC(C)(C)C(=O)/C(C#N)=C/c1c(Cl)cccc1Cl
assignedClass: fulfilled

compound: Cc1c(S(=O)(=O)c2ccc(Cl)cc2)csc1C(=O)NNc1cccc(Cl)c1
assignedClass: fulfilled
